Kindly supply the reported melting point values for the records listed here.

Reference set (6 entries):
INSERT INTO results (molecule, parameter_measured, reported_measurement) VALUES
  ('O=S1(=O)CCC(c2ccc(N3CCN(CC(O)(Cn4cncn4)c4ccc(F)cc4F)CC3)cc2)CN1 (centres undefined)', 'melting point', '165 to 167 °C'),
  ('CCN(CC)CC1CCCCN1CC(=O)N1c2ccccc2NC(=O)c2cscc21 (centres undefined)', 'melting point', '163 to 164 °C'),
  ('COc1cc(-c2ccc(Cl)cc2)nc2c(C(=O)Nc3cccc(S(C)(=O)=O)c3)cnn12', 'melting point', '265 °C'),
  ('OC(CN1CCC(c2noc3cc(F)ccc23)CC1)CN1CCc2ccccc2C1 (centres undefined)', 'melting point', '179 to 181 °C'),
  ('BrCc1cccc(OCCCCOc2ccccc2)c1', 'melting point', '47 to 49 °C'),
  ('CC(=O)NCCC1Nc2ccccc2N2CCc3cccc1c32 (centres undefined)', 'melting point', '196 to 198 °C');

Provide melting point values for the following items, in order.
1. CC1=C(C(=O)OCOC(=O)C(C)(C)C)C(c2cccc([N+](=O)[O-])c2)C(C(=O)OCOC(=O)C(C)(C)C)=C(C)N1
2. NS(=O)(=O)c1nnc(NC(=O)c2ccccc2)s1
3. O=C(N[C@H]1CCC(=O)N2CCC[C@@H](C(=O)O)N2C1=O)OCc1ccccc1

stdout:
124 to 125 °C
250 °C
60 to 100 °C

For every record below, what is its melting point?
1. Nc1c(F)c(N2CCC(n3cc(-c4ccccc4)nn3)C2)c(F)c2c1c(=O)c(C(=O)O)cn2C1CC1 (centres undefined)
2. COc1ccc(CN(CCN(C)CCCCNC(=O)NCCSCc2csc(NC(=N)N)n2)c2ccccn2)cc1
3. CCOC(=O)C(=O)c1csc(NC(=S)NC(=O)c2ccccc2)n1
4. O=C(O)CCOc1cccc2c1Cc1sc(S(=O)(=O)CCC(c3ccccc3)c3ccccc3)nc1-2

stdout:
265 °C
104 to 106 °C
155 to 157 °C
215 to 218 °C

Please report melting point for every entry that follows.
1. CSc1cc(C(F)(F)F)cc(Cl)c1-n1c(Br)nc(Cl)c1S(=O)(=O)C(F)F
2. CN(N)c1ccc(-c2ccccc2)nn1
3. CC(=O)N1CCc2c(c3cccc4c3n2CCS4)C1
4. Cc1cc(=O)[nH]c(=O)n1C1OC(CO)C(O)C1O (centres undefined)
5. COc1ccc2c(c1)OCC(c1ccc(C(F)(F)F)cc1)C2c1ccc(O)cc1 (centres undefined)
6. CC(=NOCCC(N)=O)c1ccc(Cl)cc1

stdout:
1. 116 °C
2. 145 to 147 °C
3. 161 to 163 °C
4. 175 to 177 °C
5. 211 to 213 °C
6. 149 to 150 °C

----------
Record form. Attribute: melting point. Fill in for each entry.

INSERT INTO measurements (compound, parameter_measured, reported_measurement) VALUES
  ('COC(C)C(O)(Cc1ccc(Cl)cc1Cl)c1cccnc1 (configuration not stated)', 'melting point', '94 to 95 °C');

Would you mind giving melting point for every compound in the list below?
1. COc1nc(C)nc(NC(=O)NS(=O)(=O)c2cc([N+](=O)[O-])cs2)n1
2. COC(=O)C(c1ccc(N)cc1)C1CC1 (configuration not stated)

stdout:
188 °C
68 to 69 °C

Return reported melting point values for all items listed beneath this line.
1. CC(C)(C)NC(=O)c1nn(-c2cc(F)cc(F)c2)c2c1C1CCC2C1 (configuration not stated)
2. O=CNC1Cc2ccccc2NC1=O (configuration not stated)

stdout:
1: 103 to 107 °C; 2: 197 to 200 °C

----------
For each of the compounds below, state its melting point.

INSERT INTO results (compound, parameter_measured, reported_measurement) VALUES
  ('Cc1cccc2c1S(=O)(=O)N=C2C1=C(O)C(C(C)(C)C)N(Cc2ccc(F)cc2)C1=O (stereo not given)', 'melting point', '> 250 °C'),
  ('N#Cc1ccc(NC(=S)Nc2ncccc2OCc2ccccc2)cc1', 'melting point', '163 to 165 °C'),
  ('CC(O)(CCC#N)c1ccc(Oc2ccc(Cl)cc2)cc1 (stereo not given)', 'melting point', '68 to 70 °C'),
  ('FC(F)(F)c1cccc(C2=CCN(CCc3ccc(-c4ccccc4)cc3)CC2)c1', 'melting point', '114 to 116 °C'),
  ('O=C(O)c1cccc(Oc2ccnc(Cl)c2)n1', 'melting point', '183 °C'),
  ('CCN1CCCC1Cc1cccc(NC(N)=O)c1 (stereo not given)', 'melting point', '114 to 116 °C'),
  ('COc1ccc(C(=O)O)nc1Oc1cccc(C(F)(F)F)c1', 'melting point', '116 to 118 °C'),
  ('Oc1cn(-c2c(Cl)cc(C(F)(F)F)cc2Cl)nc1C(F)(F)F', 'melting point', '186 to 188 °C');

Field: melting point. Fill in for each record below.
1. CN(C)Cc1ccc2cc(NC(=O)c3ccc(-c4ccc(F)cc4)cc3)ccc2n1
2. CN(C)c1ccc(NC(=O)N(C[C@@H]2CCC[C@H](CN(C(=O)Nc3ccc(N(C)C)cc3)C3CCCCCCC3)C2)C2CCCCCCC2)cc1

stdout:
1. 205 to 208 °C
2. 147 to 149 °C

----------
PARAMETER MEASURED: melting point

INSERT INTO assay_data (molecule, parameter_measured, reported_measurement) VALUES
  ('N#Cc1cnc2cnc(F)cc2c1Nc1ccc(F)c(Cl)c1', 'melting point', '108 to 111 °C');

Record melting point for all entries; do not skip any.
1. COc1cc(Cl)ccc1CCl
2. Cc1nc(-n2cc(-c3cccnc3)nn2)sc1C(=O)NCc1ccccc1
3. Cc1cc(I)cc2[nH]c(=O)oc12
4. CCCCCCCCC(CCCCCCCC)N1C(=O)c2ccc3c4cccc5cccc(c6ccc(c2c36)C1=O)c54
5. CC(C)CCc1c(-c2ccc(S(C)(=O)=O)cc2)cnn(-c2cccc(Cl)c2)c1=O
6. CC(=O)Nc1nc(N)nc(-c2ccc(S(=O)(=O)c3ccccc3)cc2)n1
7. O=c1[nH]cnc2cc(Cl)c(Oc3ccc(Cl)cc3)cc12
8. Cc1c(C)c(O)c(CC[C@](C)(O)CO)c(C)c1O

stdout:
1. 43 to 45 °C
2. 117 to 119 °C
3. 248 to 250 °C
4. 143 to 144 °C
5. 60 to 65 °C
6. > 260 °C
7. 250 to 252 °C
8. 124 to 132 °C

stdin: Could you share which melting point value was measured for CCCCc1ccc(C2(C)OC(=C(C#N)C#N)C(C#N)=C2C)cc1 (stereo not given) ?
stdout: 129 to 130 °C

----------
Assign melting point to each entry below.

Some solved cases for reference:
INSERT INTO measurements (compound, reported_measurement) VALUES
  ('CSC(=O)c1c(C(F)F)nc(C(F)(F)F)c(C(=O)SC)c1NC(C)C', '92 to 94 °C'),
  ('COC(C(=O)O)c1c(Cl)cccc1Cl (stereo not given)', '95 to 96 °C'),
  ('COc1ccnc(CCc2nc3cc(-c4ccc(S(=O)(=O)Nc5ccccc5OC)cc4)cnc3[nH]2)c1', '215 to 216 °C'),
  ('CC(NC(=O)OC(C)(C)C)C(=O)NC(C)C(=O)Nc1ccc2c(Cl)c(OCCBr)oc(=O)c2c1 (stereo not given)', '147 to 151 °C');

List reported melting point for each of these compounds:
1. CCSc1nnc(-c2ccccc2)n1Cc1ccc([N+](=O)[O-])cc1
2. COC(=O)NCc1cccc(-c2ccccc2)c1C
3. O=C(Nc1ccc2ccc(Oc3ccccc3)nc2n1)c1ccsc1
4. CS(=O)(=O)c1ccc2[nH]cc(CCN)c2c1
5. Cn1c(=O)c2cnc(O)n2c2ccccc21
6. COc1ccc(Cc2ccc(C(=O)N(C3CCCC3)C3CCCC3)cc2)cc1OC

stdout:
1: 108 °C; 2: 91 to 94 °C; 3: 95 °C; 4: 134 to 138 °C; 5: > 300 °C; 6: 138 to 142 °C

----------
So I've got a bunch of compounds here, and I need their melting point values.

Consider the worked cases shown below.
INSERT INTO measurements (compound, parameter_measured, reported_measurement) VALUES
  ('Cc1nc(N2CCN(C)CC2)ccc1N1CCCn2c1nc1c(Cl)ccc(C(OC(F)F)C(F)(F)F)c12 (stereo unspecified)', 'melting point', '193 to 195 °C'),
  ('Cc1cc(C(=O)c2ccccc2)c(-n2c(C)nnc2CNC(=O)c2cc3ccccc3[nH]2)s1', 'melting point', '231 to 233 °C'),
  ('CC(C)c1cc(NS(=O)(=O)c2cc(C3(O)CCC(=O)N3C)ccc2Cl)cc(C(C)C)c1O (stereo unspecified)', 'melting point', '198 to 200 °C');

Value sought for every listed compound: melting point.
1. COc1ccccc1N1CCN(CCc2ccc3c(c2)oc(=O)n3C)CC1
2. CCOC(=O)ON(C(=O)NC)c1ccc(Cl)c(Cl)c1
3. CCCC(=O)ON=C(c1ccccc1)c1cc(C(C)(C)C)c(O)c(C(C)(C)C)c1
4. Cc1ccc(S(=O)(=O)OCC2COc3ccc([N+](=O)[O-])c(N)c3O2)cc1 (stereo unspecified)

stdout:
137 to 138 °C
97 to 98 °C
118 to 119 °C
155 °C

Give melting point for all compounds that follow.
1. COC(=O)c1ccc(-c2ccc(NC(=O)c3ccc(OC)c(CCCN(C)C)c3)cc2)cc1
2. O=C(Nc1ccc(-n2nc(C(F)(F)F)cc2C(F)(F)F)cc1)c1ccc(F)c(F)c1F
3. C=CC(=O)Nc1cccc(-c2ccnc3c(C(=O)c4cccs4)cnn23)c1

stdout:
1. 188 to 192 °C
2. 122 to 124 °C
3. 192 to 194 °C

For each of the compounds below, state melting point.
1. CCCC(CCC)n1nnc2c(Nc3c(C)cc(C)cc3Br)nc(C)nc21
2. COc1cc2c(Cl)nc3c4ccccc4nc(Cl)c3c2cc1OC

stdout:
1: 141 to 142 °C; 2: 245 to 246 °C

Go through the list and state melting point for each entry.
1. CCCc1nc2c(N)nc3ccccc3c2n1CCCCC(N)=O
2. CCOC(=O)N1CCC(=C2c3ccc(Cl)cc3OCc3cc(Br)cnc32)CC1
3. CC(C)(O)C(C(=O)O)c1ccc(F)cc1 (stereo unspecified)
4. Cc1ccc(C)c(OC(C)(C)C(=O)O)c1

stdout:
["202 to 203 °C", "148 to 149 °C", "86 to 88 °C", "107 to 109 °C"]
